remaining activity at 1 µM for assorted molecules
- experimentalSystem: panel of 442 kinases (Homo sapiens, UniProt P54760)
- Construct: purchased Ambit Biosciences (scanMAXX KINOMEscan)
- Sequence (P54760 16-987): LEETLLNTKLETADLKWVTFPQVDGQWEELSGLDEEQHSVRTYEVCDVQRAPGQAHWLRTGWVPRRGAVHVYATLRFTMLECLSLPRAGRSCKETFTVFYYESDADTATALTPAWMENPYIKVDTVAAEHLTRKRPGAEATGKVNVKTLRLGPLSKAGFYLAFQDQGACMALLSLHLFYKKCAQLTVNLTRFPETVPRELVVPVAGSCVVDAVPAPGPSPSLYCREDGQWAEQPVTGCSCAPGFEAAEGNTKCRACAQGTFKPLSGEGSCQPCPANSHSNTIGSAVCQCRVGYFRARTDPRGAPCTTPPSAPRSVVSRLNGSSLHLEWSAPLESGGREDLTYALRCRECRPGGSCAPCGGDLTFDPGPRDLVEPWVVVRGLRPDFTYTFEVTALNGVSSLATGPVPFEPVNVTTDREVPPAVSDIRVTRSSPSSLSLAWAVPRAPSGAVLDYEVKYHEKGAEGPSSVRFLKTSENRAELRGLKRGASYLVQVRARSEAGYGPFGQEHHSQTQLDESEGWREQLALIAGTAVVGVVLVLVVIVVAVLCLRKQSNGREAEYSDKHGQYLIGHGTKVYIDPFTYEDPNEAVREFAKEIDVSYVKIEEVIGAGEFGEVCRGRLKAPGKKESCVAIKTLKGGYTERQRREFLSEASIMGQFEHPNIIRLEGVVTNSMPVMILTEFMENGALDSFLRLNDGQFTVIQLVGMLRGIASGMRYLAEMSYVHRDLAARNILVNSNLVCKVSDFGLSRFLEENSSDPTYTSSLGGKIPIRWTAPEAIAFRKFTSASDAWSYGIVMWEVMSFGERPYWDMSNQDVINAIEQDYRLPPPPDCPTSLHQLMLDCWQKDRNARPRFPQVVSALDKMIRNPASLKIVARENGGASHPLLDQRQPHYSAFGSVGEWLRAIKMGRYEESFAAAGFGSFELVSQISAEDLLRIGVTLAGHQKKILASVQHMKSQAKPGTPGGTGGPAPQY
- assayProtocol: biochemical
- Type: binding
- reportedConditions: EPHB4; 1 µM; read-out: % of control at 1 µM
Number in %, nothing else.

Previously resolved entries follow.
| molecule | remaining activity at 1 µM (%) |
| --- | --- |
| Cn1c(=O)n(-c2ccc(C(C)(C)C#N)cc2)c2c3cc(-c4cnc5ccccc5c4)ccc3ncc21 [Dactolisib] | 97 |
| COc1ncc(-c2ccc3nccc(-c4ccnnc4)c3c2)cc1NS(=O)(=O)c1ccc(F)cc1F [Omipalisib] | 100 |

panel of 442 kinases (Homo sapiens, UniProt P54760) remaining activity at 1 µM of FC(F)c1nc2ccccc2n1-c1nc(N2CCOCC2)nc(N2CCOCC2)n1 [ZSTK474] is 92

panel of 442 kinases (Homo sapiens, UniProt P54760) remaining activity at 1 µM of Nc1cc(C(F)(F)F)c(-c2cc(N3CCOCC3)nc(N3CCOCC3)n2)cn1 [Buparlisib] is 100

---

- experimentalSystem: panel of 442 kinases (Homo sapiens)
- Construct: purchased Ambit Biosciences (scanMAXX KINOMEscan)
- assayProtocol: biochemical
- Assay type: binding
- reportedConditions: FGFR3; 1 µM; read-out: % of control at 1 µM
reportedMetric: remaining activity at 1 µM (%)
Number in %, nothing else.

Previously resolved entries follow.
| molecule | reportedMetric | experimentalValue |
| --- | --- | --- |
| COc1ncc(-c2ccc3nccc(-c4ccnnc4)c3c2)cc1NS(=O)(=O)c1ccc(F)cc1F [Omipalisib] | remaining activity at 1 µM | 87 |
| Nc1cc(C(F)(F)F)c(-c2cc(N3CCOCC3)nc(N3CCOCC3)n2)cn1 [Buparlisib] | remaining activity at 1 µM | 100 |
| FC(F)c1nc2ccccc2n1-c1nc(N2CCOCC2)nc(N2CCOCC2)n1 [ZSTK474] | remaining activity at 1 µM | 100 |

As a next step, examine the molecule that follows.
panel of 442 kinases (Homo sapiens) remaining activity at 1 µM of Cn1c(=O)n(-c2ccc(C(C)(C)C#N)cc2)c2c3cc(-c4cnc5ccccc5c4)ccc3ncc21 [Dactolisib] is 100

---

remaining activity at 1 µM for assorted molecules
- experimentalSystem: panel of 442 kinases (Homo sapiens)
- Construct: purchased Ambit Biosciences (scanMAXX KINOMEscan)
- assayProtocol: biochemical
- Type: binding
- reportedConditions: kinase PRKG2; 1 µM; read-out: PRKG2 (% of control at 1 µM)
Number in %, nothing else.

| givenSmiles | reportedMetric | unitAbbrev | experimentalValue |
| --- | --- | --- | --- |
| COc1ncc(-c2ccc3nccc(-c4ccnnc4)c3c2)cc1NS(=O)(=O)c1ccc(F)cc1F | remaining activity at 1 µM | % | 96 |

Kindly note the recorded remaining activity at 1 µM for "Cn1c(=O)n(-c2ccc(C(C)(C)C#N)cc2)c2c3cc(-c4cnc5ccccc5c4)ccc3ncc21" , which is 84

Kindly note the recorded remaining activity at 1 µM for "FC(F)c1nc2ccccc2n1-c1nc(N2CCOCC2)nc(N2CCOCC2)n1" , which is 95

Kindly note the recorded remaining activity at 1 µM for "Nc1cc(C(F)(F)F)c(-c2cc(N3CCOCC3)nc(N3CCOCC3)n2)cn1" , which is 93

---

remaining activity at 1 µM for assorted molecules
- experimentalSystem: panel of 442 kinases (Homo sapiens, UniProt O75116)
- Construct: purchased Ambit Biosciences (scanMAXX KINOMEscan)
- Sequence (O75116 whole entry): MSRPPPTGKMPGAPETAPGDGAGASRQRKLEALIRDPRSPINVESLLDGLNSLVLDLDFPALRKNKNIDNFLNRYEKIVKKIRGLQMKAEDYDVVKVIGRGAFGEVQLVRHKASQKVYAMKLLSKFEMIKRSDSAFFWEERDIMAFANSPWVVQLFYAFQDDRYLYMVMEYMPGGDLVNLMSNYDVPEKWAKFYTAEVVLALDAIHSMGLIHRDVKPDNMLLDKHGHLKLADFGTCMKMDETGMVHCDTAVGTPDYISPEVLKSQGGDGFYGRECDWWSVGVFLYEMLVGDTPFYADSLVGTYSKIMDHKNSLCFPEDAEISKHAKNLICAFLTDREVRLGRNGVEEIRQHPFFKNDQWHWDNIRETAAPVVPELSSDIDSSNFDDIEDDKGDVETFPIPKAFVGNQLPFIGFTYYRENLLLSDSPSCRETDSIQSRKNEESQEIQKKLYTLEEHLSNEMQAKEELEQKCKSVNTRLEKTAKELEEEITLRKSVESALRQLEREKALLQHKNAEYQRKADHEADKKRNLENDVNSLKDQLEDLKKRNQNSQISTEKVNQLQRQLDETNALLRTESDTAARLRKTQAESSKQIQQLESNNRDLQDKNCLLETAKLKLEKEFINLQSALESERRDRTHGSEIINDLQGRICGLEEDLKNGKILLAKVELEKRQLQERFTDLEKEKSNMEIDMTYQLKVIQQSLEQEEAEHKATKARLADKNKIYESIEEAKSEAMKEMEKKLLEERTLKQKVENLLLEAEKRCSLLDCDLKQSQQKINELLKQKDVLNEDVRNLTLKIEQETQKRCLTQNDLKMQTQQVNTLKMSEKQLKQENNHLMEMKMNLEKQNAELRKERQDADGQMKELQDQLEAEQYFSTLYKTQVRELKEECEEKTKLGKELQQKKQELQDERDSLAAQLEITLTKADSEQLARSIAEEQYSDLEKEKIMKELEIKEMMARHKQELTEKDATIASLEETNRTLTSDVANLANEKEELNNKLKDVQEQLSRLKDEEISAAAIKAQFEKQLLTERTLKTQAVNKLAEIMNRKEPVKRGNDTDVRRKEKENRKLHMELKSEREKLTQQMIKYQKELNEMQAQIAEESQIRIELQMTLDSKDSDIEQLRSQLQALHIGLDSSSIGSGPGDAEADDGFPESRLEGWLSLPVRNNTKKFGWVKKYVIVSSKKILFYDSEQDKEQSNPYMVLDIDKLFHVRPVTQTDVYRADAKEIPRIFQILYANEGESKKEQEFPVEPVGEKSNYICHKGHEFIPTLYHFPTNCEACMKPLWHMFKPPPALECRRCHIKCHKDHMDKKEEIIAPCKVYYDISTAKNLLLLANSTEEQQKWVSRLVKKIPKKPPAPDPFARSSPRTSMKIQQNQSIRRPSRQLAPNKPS
- assayProtocol: biochemical
- Assay type: binding
- reportedConditions: kinase ROCK2; 1 µM; read-out: ROCK2 (% of control at 1 µM)
Number in %, nothing else.

Previously resolved entries follow.
| molecule | experimentalSystem | reportedMetric | experimentalValue |
| --- | --- | --- | --- |
| Nc1cc(C(F)(F)F)c(-c2cc(N3CCOCC3)nc(N3CCOCC3)n2)cn1 [Buparlisib] | panel of 442 kinases (Homo sapiens, UniProt O75116) | remaining activity at 1 µM | 100 |
| FC(F)c1nc2ccccc2n1-c1nc(N2CCOCC2)nc(N2CCOCC2)n1 [ZSTK474] | panel of 442 kinases (Homo sapiens, UniProt O75116) | remaining activity at 1 µM | 86 |
| COc1ncc(-c2ccc3nccc(-c4ccnnc4)c3c2)cc1NS(=O)(=O)c1ccc(F)cc1F [Omipalisib] | panel of 442 kinases (Homo sapiens, UniProt O75116) | remaining activity at 1 µM | 89 |

Kindly note the recorded remaining activity at 1 µM for Cn1c(=O)n(-c2ccc(C(C)(C)C#N)cc2)c2c3cc(-c4cnc5ccccc5c4)ccc3ncc21 [Dactolisib] , which is 60

---

- experimentalSystem: panel of 442 kinases (Homo sapiens)
- Construct: purchased Ambit Biosciences (scanMAXX KINOMEscan)
- assayProtocol: biochemical
- Format: binding
- reportedConditions: CSNK1G3; 1 µM; read-out: % of control at 1 µM
remaining activity at 1 µM for assorted compounds
Number in %, nothing else.

Previously resolved entries follow.
| givenSmiles | reportedMetric | unitAbbrev | experimentalValue |
| --- | --- | --- | --- |
| Nc1cc(C(F)(F)F)c(-c2cc(N3CCOCC3)nc(N3CCOCC3)n2)cn1 | remaining activity at 1 µM | % | 100 |
| COc1ncc(-c2ccc3nccc(-c4ccnnc4)c3c2)cc1NS(=O)(=O)c1ccc(F)cc1F | remaining activity at 1 µM | % | 100 |

Kindly note the recorded remaining activity at 1 µM for "FC(F)c1nc2ccccc2n1-c1nc(N2CCOCC2)nc(N2CCOCC2)n1" , which is 100

Kindly note the recorded remaining activity at 1 µM for "Cn1c(=O)n(-c2ccc(C(C)(C)C#N)cc2)c2c3cc(-c4cnc5ccccc5c4)ccc3ncc21" , which is 72

---

- experimentalSystem: panel of 442 kinases (Homo sapiens)
- Construct: purchased Ambit Biosciences (scanMAXX KINOMEscan)
- assayProtocol: biochemical
- Format: binding
- reportedConditions: kinase GRK4; 1 µM; read-out: % of control at 1 µM
remaining activity at 1 µM for assorted compounds
Number in %, nothing else.

| givenSmiles | unitAbbrev | experimentalValue |
| --- | --- | --- |
| Cn1c(=O)n(-c2ccc(C(C)(C)C#N)cc2)c2c3cc(-c4cnc5ccccc5c4)ccc3ncc21 | % | 97 |
| COc1ncc(-c2ccc3nccc(-c4ccnnc4)c3c2)cc1NS(=O)(=O)c1ccc(F)cc1F | % | 100 |
| Nc1cc(C(F)(F)F)c(-c2cc(N3CCOCC3)nc(N3CCOCC3)n2)cn1 | % | 100 |

Kindly note the recorded remaining activity at 1 µM for "FC(F)c1nc2ccccc2n1-c1nc(N2CCOCC2)nc(N2CCOCC2)n1" , which is 100

---

- experimentalSystem: ERBB3 (Homo sapiens)
- Construct: purchased Ambit Biosciences (scanMAXX KINOMEscan)
- Sequence (P21860 20-1342): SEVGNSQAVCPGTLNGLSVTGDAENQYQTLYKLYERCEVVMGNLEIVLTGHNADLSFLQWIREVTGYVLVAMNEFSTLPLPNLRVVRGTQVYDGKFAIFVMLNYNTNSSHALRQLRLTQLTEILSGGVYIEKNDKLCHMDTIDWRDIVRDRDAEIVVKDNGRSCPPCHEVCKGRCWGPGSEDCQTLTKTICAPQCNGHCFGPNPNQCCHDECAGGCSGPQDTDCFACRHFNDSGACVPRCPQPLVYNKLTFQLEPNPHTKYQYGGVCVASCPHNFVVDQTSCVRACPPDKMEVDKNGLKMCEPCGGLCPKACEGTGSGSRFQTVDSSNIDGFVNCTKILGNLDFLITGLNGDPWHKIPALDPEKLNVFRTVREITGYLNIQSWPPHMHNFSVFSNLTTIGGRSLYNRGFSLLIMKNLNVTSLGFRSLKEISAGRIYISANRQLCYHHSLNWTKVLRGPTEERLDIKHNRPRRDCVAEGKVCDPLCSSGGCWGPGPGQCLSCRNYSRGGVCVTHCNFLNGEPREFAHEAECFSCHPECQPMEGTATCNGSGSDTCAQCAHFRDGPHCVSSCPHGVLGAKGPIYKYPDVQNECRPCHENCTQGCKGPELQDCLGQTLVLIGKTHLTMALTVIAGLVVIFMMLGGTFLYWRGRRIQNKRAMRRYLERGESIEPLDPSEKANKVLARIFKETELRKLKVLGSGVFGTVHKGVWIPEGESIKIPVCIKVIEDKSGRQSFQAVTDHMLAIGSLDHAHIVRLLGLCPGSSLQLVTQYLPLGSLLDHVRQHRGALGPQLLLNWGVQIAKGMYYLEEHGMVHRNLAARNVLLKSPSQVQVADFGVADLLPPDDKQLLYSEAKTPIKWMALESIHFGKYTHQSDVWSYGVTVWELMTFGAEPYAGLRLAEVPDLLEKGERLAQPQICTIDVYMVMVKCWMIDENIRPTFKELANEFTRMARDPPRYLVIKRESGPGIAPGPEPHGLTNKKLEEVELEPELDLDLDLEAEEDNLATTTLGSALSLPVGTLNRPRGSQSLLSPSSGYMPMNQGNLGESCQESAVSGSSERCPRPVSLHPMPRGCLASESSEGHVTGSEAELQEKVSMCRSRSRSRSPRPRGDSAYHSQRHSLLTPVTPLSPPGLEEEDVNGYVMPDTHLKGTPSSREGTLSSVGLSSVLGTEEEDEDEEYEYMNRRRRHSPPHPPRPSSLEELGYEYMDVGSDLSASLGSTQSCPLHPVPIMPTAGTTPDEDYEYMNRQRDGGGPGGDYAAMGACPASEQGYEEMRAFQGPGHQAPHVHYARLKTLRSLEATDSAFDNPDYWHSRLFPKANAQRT
- assayProtocol: KINOMEscan, ERBB3
- Assay type: binding
- reportedConditions: ERBB3; 1 µM; read-out: % of control at 1 µM
reportedMetric: remaining binding at 1 µM (%)
Number in %, nothing else.

| givenSmiles | unitAbbrev | remaining binding at 1 µM |
| --- | --- | --- |
| Nc1cc(C(F)(F)F)c(-c2cc(N3CCOCC3)nc(N3CCOCC3)n2)cn1 | % | 100 |

Kindly note the recorded remaining binding at 1 µM for "COc1ncc(-c2ccc3nccc(-c4ccnnc4)c3c2)cc1NS(=O)(=O)c1ccc(F)cc1F" , which is 95

Kindly note the recorded remaining binding at 1 µM for "FC(F)c1nc2ccccc2n1-c1nc(N2CCOCC2)nc(N2CCOCC2)n1" , which is 24

Kindly note the recorded remaining binding at 1 µM for "CS(=O)(=O)N1CCN(Cc2cc3nc(-c4cccc5[nH]ncc45)nc(N4CCOCC4)c3s2)CC1" , which is 100

Kindly note the recorded remaining binding at 1 µM for "Cn1c(=O)n(-c2ccc(C(C)(C)C#N)cc2)c2c3cc(-c4cnc5ccccc5c4)ccc3ncc21" , which is 9.2

---

- experimentalSystem: panel of 442 kinases (Homo sapiens, UniProt Q96SB4)
- Construct: purchased Ambit Biosciences (scanMAXX KINOMEscan)
- Sequence (Q96SB4 whole entry): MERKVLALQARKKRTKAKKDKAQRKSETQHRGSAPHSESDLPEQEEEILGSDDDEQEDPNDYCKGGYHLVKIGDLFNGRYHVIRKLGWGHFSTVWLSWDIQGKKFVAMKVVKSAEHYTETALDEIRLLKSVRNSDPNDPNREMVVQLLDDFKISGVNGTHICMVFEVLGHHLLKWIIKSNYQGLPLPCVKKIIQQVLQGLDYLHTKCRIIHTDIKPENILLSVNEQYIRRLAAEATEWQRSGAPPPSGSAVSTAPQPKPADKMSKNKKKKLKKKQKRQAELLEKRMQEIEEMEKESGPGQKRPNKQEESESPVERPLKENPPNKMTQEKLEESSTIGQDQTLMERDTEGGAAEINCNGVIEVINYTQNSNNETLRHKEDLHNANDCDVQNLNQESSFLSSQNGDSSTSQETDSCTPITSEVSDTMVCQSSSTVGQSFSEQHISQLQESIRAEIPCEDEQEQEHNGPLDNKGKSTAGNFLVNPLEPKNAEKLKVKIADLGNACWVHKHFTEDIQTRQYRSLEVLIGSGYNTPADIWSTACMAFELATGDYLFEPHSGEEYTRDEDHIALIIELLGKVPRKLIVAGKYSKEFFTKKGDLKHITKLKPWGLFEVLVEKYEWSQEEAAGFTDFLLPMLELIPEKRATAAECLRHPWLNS
- assayProtocol: biochemical
- Assay type: binding
- reportedConditions: kinase SRPK1; 1 µM; read-out: SRPK1 (% of control at 1 µM)
reportedMetric: remaining activity at 1 µM (%)
Number in %, nothing else.

Previously resolved entries follow.
| givenSmiles | experimentalValue |
| --- | --- |
| FC(F)c1nc2ccccc2n1-c1nc(N2CCOCC2)nc(N2CCOCC2)n1 | 67 |
| Nc1cc(C(F)(F)F)c(-c2cc(N3CCOCC3)nc(N3CCOCC3)n2)cn1 | 100 |
| COc1ncc(-c2ccc3nccc(-c4ccnnc4)c3c2)cc1NS(=O)(=O)c1ccc(F)cc1F | 100 |

As a next step, examine the compound that follows.
Kindly note the recorded remaining activity at 1 µM for "Cn1c(=O)n(-c2ccc(C(C)(C)C#N)cc2)c2c3cc(-c4cnc5ccccc5c4)ccc3ncc21" , which is 88

Data provenance: paper PMC5564600
